Where do these numbers come from? They come from patent US20250051327A1.

tested on: IL-2 secretion by human effector memory T cells (TEM); experiment: Effector memory T cells IL-2 release assay; assay type: cell-based; conditions: T-cell; human CD4+ effector memory T cells, CD3/CD28 bead stimulation, 24 h; read-out: CD4TC IL2 IC50
I'd be grateful if you could share measured IC50 for these entries.
One number for each entry, in nM.

CC(C)C(=O)N(C)[C@@H](c1ccc(N2CCCc3c2cnc2cc(Cl)nn32)cc1)C(F)(F)F [CPD0019340] :: 139
COc1ccc2ncc(Nc3ccc([C@@H](N(C)C(=O)[C@H]4CC[S@](=N)(=O)CC4)C(F)(F)F)cc3)c([C@H](C)OC)c2n1 (relative stereo) [CPD0077187] :: 209
COC[C@]1(C)CCN(c2ccc([C@H](N(C)C(=O)[C@H]3CC[S@](=N)(=O)CC3)C(F)(F)F)cc2)c2cnc3cc(Cl)nn3c21 (relative stereo) [CPD0073132] :: 150
CN1C[C@@H](C(=O)N(C)[C@@H](c2ccc(N3CCCc4c3cnc3cc(Cl)nn43)cc2)C(F)(F)F)CCC1=O (relative stereo) [CPD0073196] :: 122
COC[C@@]1(C)CCN(c2ccc([C@H](N(C)C(=O)[C@H]3CC[S@](=N)(=O)CC3)C(F)(F)F)cc2)c2cnc3cc(Cl)nn3c21 (relative stereo) [CPD0073134] :: 57
COc1cncc2c1CCCN2c1ccc(C(N(C)C(=O)C2CCS(=O)(=O)CC2)C(F)(F)F)cc1 (stereo in doubt) [CPD0021939] :: 894
COc1ccc2ncc(Nc3ccc([C@H](N(C)C(=O)C4CCS(=O)(=O)CC4)C(F)(F)F)cc3)c(C(C)OC)c2n1 (stereo partly shown) [CPD0019079] :: 102
COc1ccc2ncc(Nc3ccc([C@H](N(C)C(=O)C4CCS(=O)(=O)CC4)C(F)(F)F)cc3)cc2n1 [CPD0018619] :: 190
COc1ccc2ncc(N(C)c3ccc([C@H](N(C)C(=O)C4CCS(=O)(=O)CC4)C(F)(F)F)cc3)cc2n1 [CPD0021585] :: 1680
CC(=O)N1CCC(C(=O)N(C)[C@@H](c2ccc(N3CCCc4c3cnc3cc(Cl)nn43)cc2)C(F)(F)F)CC1 [CPD0073089] :: 79

Provide the reported IC50 of each entry below, same order.
1. CN(C(=O)[C@@H]1CS(=O)(=O)CC12CC2)[C@@H](c1ccc(N2CCCc3c2cnc2cc(Cl)nn32)cc1)C(F)(F)F (relative stereo) [CPD0073968]
2. CN(C(=O)[C@H]1CNC(=O)C1)[C@@H](c1ccc(N2CCCc3c2cnc2cc(Cl)nn32)cc1)C(F)(F)F (stereo in doubt) [CPD0073564]
3. CN(C(=O)[C@H]1CCCS(=O)(=O)C1)[C@@H](c1ccc(N2CCCc3c2cnc2cc(Cl)nn32)cc1)C(F)(F)F [CPD0021809]
4. CN=[S@]1(=O)CC[C@@H](C(=O)N(C)[C@@H](c2ccc(N3CCCc4c3cnc3cc(Cl)nn43)cc2)C(F)(F)F)CC1 (relative stereo) [CPD0072530]
5. COc1ccc2ncc(Nc3ccc([C@H](N(C)C(=O)[C@H]4CCN(C(=O)CO)C4)C(F)(F)F)cc3)c([C@H](C)OC)c2n1 (relative stereo) [CPD0075882]
6. CN(C(=O)[C@H]1CC[S@@](=N)(=O)CC1)[C@@H](c1ccc(N2CCC3(CC3)c3c2cnc2cc(Cl)nn32)cc1)C(F)(F)F [CPD0072772]

Data returned:
1. 199
2. 250
3. 143
4. 127
5. 40
6. 27

Provide the reported IC50 of each entry below, same order.
1. COc1ccc2ncc(Nc3ccc([C@@H](N(C)C(=O)[C@H]4CC[S@@](=N)(=O)CC4)C(F)(F)F)cc3)c([C@H](C)OC)c2n1 (relative stereo) [CPD0077186]
2. CN(C(=O)C1CC1)[C@@H](c1ccc(N2CCCc3c2cnc2cc(Cl)nn32)cc1)C(F)(F)F [CPD0019354]
3. CN(C(=O)C1COC1)[C@@H](c1ccc(N2CCCc3c2cnc2cc(Cl)nn32)cc1)C(F)(F)F [CPD0073083]
4. COC[C@@]1(C)CCN(c2ccc([C@H](N(C)C(=O)C3CCS(=O)(=O)CC3)C(F)(F)F)cc2)c2cnc3cc(Cl)nn3c21 [CPD0073139]
5. Cc1ncc(C(=O)N(C)[C@@H](c2ccc(N3CCCc4c3cnc3cc(Cl)nn43)cc2)C(F)(F)F)s1 [CPD0019348]
6. CN(C(=O)C1CCS(=O)(=O)CC1)[C@@H](c1ccc(N2CC3(CC3)Cc3c2cnc2cc(Cl)nn32)cc1)C(F)(F)F [CPD0022148]
7. CO[C@@H](C)c1c(Nc2ccc(C(N(C)C(=O)C3CCS(=O)(=O)CC3)C(F)(F)F)cc2)cnn2cc(Cl)nc12 (stereo partly shown) [CPD0072849]

Data returned:
[158, 83, 146, 65, 157, 116, 55]

Provide the reported IC50 of each entry below, same order.
1. CN(C(=O)[C@H]1C[C@H](C(=O)O)C1)[C@@H](c1ccc(N2CCCc3c2cnc2cc(Cl)nn32)cc1)C(F)(F)F [CPD0072439]
2. CN(C(=O)C[C@H]1CCS(=O)(=O)C1)[C@@H](c1ccc(N2CCCc3c2cnc2cc(Cl)nn32)cc1)C(F)(F)F (relative stereo) [CPD0072799]

Data returned:
1. 557
2. 178

---

tested on: IL-2 secretion by human effector memory T cells (TEM); assay: Effector memory T cells IL-2 release assay; format: cell-based; conditions: T-cell; human CD4+ effector memory T cells, CD3/CD28 bead stimulation, 24 h; read-out: CD4TC IL2 IC50
Endpoint: IC50 (nM)
Answers are plain numbers, in nM.

Examples from the recorded data:
CN(C(=O)[C@H]1CC[S@@+]([O-])CC1)[C@@H](c1ccc(N2CCC3(CC3)c3c2cnc2cc(F)nn32)cc1)C(F)(F)F (relative stereo) :: 56
CN(C(=O)C1CCCS(=O)(=O)C1)[C@@H](c1ccc(N2CCCc3c2cnc2cc(Cl)nn32)cc1)C(F)(F)F (stereo partly drawn) :: 332

Data request: Given CN(C(=O)C1CCS(=O)(=O)CC1)[C@@H](c1ccc(N2CCCc3c2cnc2cc(Cl)nn32)cc1)C(F)(F)F , state its recorded IC50.
Data returned: 68

---

Target: Recombinant human MALT-1 (amino acids 340-824) (Homo sapiens (Human))
Sequence (Q9UDY8 340-824): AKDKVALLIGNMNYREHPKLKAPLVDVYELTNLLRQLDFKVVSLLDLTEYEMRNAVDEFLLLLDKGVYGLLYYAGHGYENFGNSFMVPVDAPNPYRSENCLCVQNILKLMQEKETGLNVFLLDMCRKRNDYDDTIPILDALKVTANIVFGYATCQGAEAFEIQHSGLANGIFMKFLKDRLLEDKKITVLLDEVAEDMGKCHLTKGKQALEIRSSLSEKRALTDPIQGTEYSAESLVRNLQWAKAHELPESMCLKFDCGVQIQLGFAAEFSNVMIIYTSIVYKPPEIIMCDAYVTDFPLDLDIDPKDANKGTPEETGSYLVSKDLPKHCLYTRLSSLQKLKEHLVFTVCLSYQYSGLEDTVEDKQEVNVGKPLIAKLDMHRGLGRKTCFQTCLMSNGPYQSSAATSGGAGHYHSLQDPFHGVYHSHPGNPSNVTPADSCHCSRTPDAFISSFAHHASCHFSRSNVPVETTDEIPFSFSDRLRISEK
Assay: MALT-1 inhibition assay (fluorogenic substrate Ac-LRSR-Rh110-DP)
Settings: recombinant human MALT-1, substrate Ac-LRSR-Rh110-DP
Method: MALT-1 paracaspase activity was measured using the fluorogenic substrate Ac-LRSR-Rh110-DP (purchased from Biosantan GmbH). […] The reaction was initiated by addition of substrate. Final concentrations of MALT-1 and substrate were 3 nM and 10 μM respectively. Reactions were incubated in the dark for 60 minutes at 25° C. […] Percent inhibition values were calculated from relative fluorescence units at different doses and fitted to a 4-parameter logistic curve to determine IC50 values (see Table 1).
I'd be grateful if you could share measured IC50 for these entries.
One number for each entry, in nM.

CN(C(=O)C[C@H]1CCS(=O)(=O)C1)[C@@H](c1ccc(N2CCCc3c2cnc2cc(Cl)nn32)cc1)C(F)(F)F (relative stereo) :: 88
COC(C)c1c(Nc2ccc([C@H](N(C)C(=O)C3CCS(=O)(=O)CC3)C(F)(F)F)cc2)cnc2ccc(Cl)nc12 (stereo partly drawn) :: 112
CN(C(=O)[C@@H](O)C1CCS(=O)(=O)CC1)[C@@H](c1ccc(N2CCCc3c2cnc2cc(Cl)nn32)cc1)C(F)(F)F (relative stereo) :: 57
CN1CC[C@H](C(=O)N(C)[C@@H](c2ccc(N3CCCc4c3cnc3cc(Cl)nn43)cc2)C(F)(F)F)CC1=O (relative stereo) :: 67
C[C@@H]1CCN(c2ccc([C@H](N(C)C(=O)[C@H]3CC[S@](=N)(=O)CC3)C(F)(F)F)cc2)c2cnc3cc(Cl)nn3c21 (relative stereo) :: 22

Provide the reported IC50 of each entry below, same order.
1. CN(C(=O)[C@H]1CC[S@@+]([O-])CC1)[C@@H](c1ccc(N2CCC3(CC3)c3c2cnc2cc(Cl)nn32)cc1)C(F)(F)F (relative stereo)
2. CN(C(=O)[C@H]1CCC(=O)NC1)[C@@H](c1ccc(N2CCCc3c2cnc2cc(Cl)nn32)cc1)C(F)(F)F (relative stereo)
3. CN(C(=O)CO)[C@@H](c1ccc(N2CCCc3c2cnc2cc(Cl)nn32)cc1)C(F)(F)F
4. CN(C(=O)C1CCCS(=O)(=O)C1)[C@@H](c1ccc(N2CCCc3c2cnc2cc(Cl)nn32)cc1)C(F)(F)F (stereo partly drawn)
5. CN(C(=O)[C@H]1CC[S@+]([O-])CC1)[C@@H](c1ccc(N2CCC(C)(C)c3c2cnc2cc(Cl)nn32)cc1)C(F)(F)F (relative stereo)
6. CN(C(=O)C1CCS(=O)(=O)CC1)[C@@H](c1ccc(N2CCCc3c2cnc2cc(Cl)nn32)cc1)C(F)(F)F
7. CC(=O)N1CC[C@H](C(=O)N(C)[C@@H](c2ccc(N3CCCc4c3cnc3cc(Cl)nn43)cc2)C(F)(F)F)C1 (relative stereo)

Data returned:
58
47
200
247
62
59
76

Provide the reported IC50 of each entry below, same order.
1. C[C@H]1CCN(c2ccc([C@H](N(C)C(=O)[C@@H]3CNC(=O)C3)C(F)(F)F)cc2)c2cnc3cc(Cl)nn3c21
2. CN(C(=O)c1cncn1C)[C@@H](c1ccc(N2CCCc3c2cnc2cc(Cl)nn32)cc1)C(F)(F)F

Data returned:
30
213

Provide the reported IC50 of each entry below, same order.
1. CN(C(=O)[C@H]1CC[S@+]([O-])CC1)[C@@H](c1ccc(N2CCCc3c2cnc2cc(Cl)nn32)cc1)C(F)(F)F (relative stereo)
2. Cc1scnc1C(=O)N(C)[C@@H](c1ccc(N2CCCc3c2cnc2cc(Cl)nn32)cc1)C(F)(F)F
3. COc1ccc2ncc(Nc3ccc([C@H](N(C)C(=O)C4CCS(=O)(=O)CC4)C(F)(F)F)cc3)c([C@@H](C)O)c2n1 (relative stereo)
4. CN(C(=O)[C@H]1C[C@@](C)(O)C1)[C@@H](c1ccc(N2CCCc3c2cnc2cc(Cl)nn32)cc1)C(F)(F)F
5. CN(C(=O)[C@H]1CCCS(=O)(=O)N1)[C@@H](c1ccc(N2CCCc3c2cnc2cc(Cl)nn32)cc1)C(F)(F)F (relative stereo)
6. CN1C(=O)CC[C@@H]1C(=O)N(C)[C@@H](c1ccc(N2CCCc3c2cnc2cc(Cl)nn32)cc1)C(F)(F)F

Data returned:
1. 73
2. 582
3. 38
4. 123
5. 92
6. 60
